- system-under-test: DNA-PK kinase (Homo sapiens (Human), UniProt P78527)
- test-method-notes: biochemical
measured-endpoint: IC50 (nM)

I: Cc1cc2ncnn2cc1Nc1ncc2c(n1)n(C13CC4CC(C1)C(O)C(C4)C3)c(=O)n2C (centres unmarked) [Compound 18-2]
II: CNC(=O)c1cc(C)c(Nc2ncc3c(n2)n(C24CC5CC(CC(O)(C5)C2)C4)c(=O)n3C)cn1 [Compound 15]
[in] Between I and II , which one has the lower reported IC50 value? Kindly give the label for the entry you pick.
[out] I
(I: 0.13 nM, II: 1.1 nM)

###

pIC50: −log10 of the molar value.
These compounds were tested on DNA-PK kinase (Homo sapiens (Human), UniProt P78527); pIC50 is the recorded read-out.
measured-endpoint: pIC50

1) Cc1cc(C#N)ccc1Nc1ncc2c(n1)n(C1C3CC4CC1CC(O)(C4)C3)c(=O)n2C (single isomer, unassigned) [Compound 13-2] :: 7.28

P: Cc1cc2ncnn2cc1Nc1ncc2c(n1)n(C13CC4CC(CC(C(N)=O)(C4)C1)C3)c(=O)n2C [Compound 5]
Q: Cc1cc2c(cc1Nc1ncc3c(n1)n(C14CC5CC(C1)C(=O)C(C5)C4)c(=O)n3C)CCO2 [Compound 30]
R: Cc1cc2c(cc1Nc1ncc3c(n1)n(C14CC5CC(CC(O)(C5)C1)C4)c(=O)n3C)CCO2 [Compound 32]
[in] Sort low-to-high on pIC50, please. Your reply should list the labels following the order given in the request.
[out] P, R, Q
(P: 8.41, R: 8.64, Q: 10.10)

###

- system-under-test: DNA-PK kinase (Homo sapiens (Human), UniProt P78527)
pIC50: −log10 of the molar value.
measured-endpoint: pIC50

1) Cc1cc2ncccc2cc1Nc1ncc2c(n1)n(C13CC4CC(CC(O)(C4)C1)C3)c(=O)n2C :: 11.00
2) Cc1cc2ncnn2cc1Nc1ncc2c(n1)n(C13CC4CC(CC(N)(C4)C1)C3)c(=O)n2C :: 8.65

a: Cc1cc(C(N)=O)c(F)cc1Nc1ncc2c(n1)n(C13CC4CC(CC(C#N)(C4)C1)C3)c(=O)n2C
b: Cc1cc2ncnn2cc1Nc1ncc2c(n1)n(C1C3CC4CC1CC(C#N)(C4)C3)c(=O)n2C (single isomer, unassigned) [Compound 28-1]
c: Cc1cc2ncnn2cc1Nc1ncc2[nH]c(=O)n(C34CC5CC(CC(O)(C5)C3)C4)c2n1
[in] Sort low-to-high on pIC50, please. Your reply should list the labels following the order given in the request.
[out] a, b, c
(a: 8.12, b: 9.12, c: 9.49)

P: Cc1cc(C(N)=O)c(F)cc1Nc1ncc2c(n1)n(C1C3CC4CC1CC(O)(C4)C3)c(=O)n2C (single isomer, unassigned) [Compound 27-1]
Q: Cc1cc2ncnn2cc1Nc1ncc2c(n1)n(C13CC4CC(CC(C(=O)O)(C4)C1)C3)c(=O)n2C
[in] Of the two listed items, P and Q , which carries the larger pIC50 figure? Kindly give the label for the entry you pick.
[out] Q
(Q: 9.35, P: 7.98)

P: Cc1cc(C(N)=O)c(F)cc1Nc1ncc2c(n1)n(C13CC4CC(C1)C(C#N)C(C4)C3)c(=O)n2C (single isomer, unassigned) [Compound 24-2]
Q: COC12CC3CC(C1)CC(n1c(=O)n(C)c4cnc(Nc5cn6ncnc6cc5C)nc41)(C3)C2
R: Cc1cc2ncnn2cc1Nc1ncc2c(n1)n(C13CC4CC(C1)C(=O)C(C4)C3)c(=O)n2C
S: Cc1cc(C(N)=O)c(F)cc1Nc1ncc2c(n1)n(C13CC4CC(C1)C(C#N)C(C4)C3)c(=O)n2C (single isomer, unassigned) [Compound 24-1]
[in] Rank entries according to their pIC50, from the largest number down. Your reply should list the labels following the order given in the request.
[out] R, Q, S, P

###

These compounds were tested on DNA-PK kinase (Homo sapiens (Human)); IC50 is the recorded read-out.
measured-endpoint: IC50 (nM)

I: Cc1cc2ncnn2cc1Nc1ncc2c(n1)n(C13CC4CC(C1)C(C#N)C(C4)C3)c(=O)n2C (single isomer, unassigned) [Compound 21-2]
II: CCOC(=O)C12CC3CC(C1)CC(n1c(=O)n(C)c4cnc(Nc5cn6ncnc6cc5C)nc41)(C3)C2 [Compound 7]
[in] Of the two listed items, I and II , which carries the larger IC50 figure? Kindly give the label for the entry you pick.
[out] I

###

- system-under-test: DNA-PK kinase (Homo sapiens (Human), UniProt P78527)
measured-endpoint: IC50 (nM)

Answered examples (3):
1. Cc1cc(C(N)=O)c(F)cc1Nc1ncc2c(n1)n(C13CC4CC(C1)C(=O)C(C4)C3)c(=O)n2C [Compound 25] :: 0.01
2. Cc1cc2ncnn2cc1Nc1ncc2c(n1)n(C13CC4CC(CC(CO)(C4)C1)C3)c(=O)n2C [Compound 8] :: 0.01
3. Cc1cc(C#N)ccc1Nc1ncc2c(n1)n(C1C3CC4CC1CC(O)(C4)C3)c(=O)n2C (single isomer, unassigned) [Compound 13-1] :: 0.68

a: Cc1cc(C(N)=O)c(F)cc1Nc1ncc2c(n1)n(C1C3CC4CC1CC(O)(C4)C3)c(=O)n2C (single isomer, unassigned)
b: Cc1cc(C(N)=O)c(F)cc1Nc1ncc2c(n1)n(C13CC4CC(CC(O)(C4)C1)C3)c(=O)n2C [Compound 22]
c: Cc1cc2ncnn2cc1Nc1ncc2c(n1)n(C13CC4CC(CC(C(=O)N5CCOCC5)(C4)C1)C3)c(=O)n2C [Compound 9]
d: Cc1cc2ncnn2cc1Nc1ncc2c(n1)n(C13CC4CC(CC(C(=O)OC(C)(C)C)(C4)C1)C3)c(=O)n2C [Compound 3]
[in] Sort low-to-high on IC50, please. Your reply should list the labels following the order given in the request.
[out] b, a, c, d

###

- system-under-test: DNA-PK kinase (Homo sapiens (Human), UniProt P78527);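 note: enzyme inhibition of DNA-PK with kinase activity read out by chemiluminescence on a microplate reader after adding a kinase detection reagent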
pIC50: −log10 of the molar value.
measured-endpoint: pIC50

1. COC1(OC)C2CC3CC1CC(n1c(=O)n(C)c4cnc(Nc5cc6c(cc5C)OCC6)nc41)(C3)C2 [Compound 31] :: 10.00

I: Cn1c(=O)n(C23CC4CC(CC(O)(C4)C2)C3)c2nc(Nc3cc4c(cc3Cl)OCC4)ncc21 [Compound 33]
II: Cc1cc2ncnn2cc1Nc1ncc2c(n1)n(C1C3CC4CC1CC(C#N)(C4)C3)c(=O)n2C (single isomer, unassigned) [Compound 28-2]
[in] Of the two listed items, I and II , which carries the larger pIC50 figure? Kindly give the label for the entry you pick.
[out] II
